# System: Plasmodium berghei
# ASSAY_METHOD_TEXT: Screen against P. berghei liver stage (PbLuc), transformed with Luciferase, at 10uM
# Assay type: functional, HepG2
# CONDITION_DETAILS: tested at 10 uM
The whole screen tested about 69,000 compounds, of which about 8,600 (12%) showed an effect of 50% or more. The full list was thinned out, with strong results kept by preference.
MEASURE_NAME: INHIBITION (%)
Output spec: scalar in %, unitless text.

Use these answered entries as a reference point.
Query INHIBITION for c1csc(-c2noc(C3CNC3)n2)c1
58.1

Read off the recorded INHIBITION for COc1ccc(F)c(CN2CCCC(O)(CNCc3ccon3)C2=O)c1 (configuration not stated)
52

Return INHIBITION (reported value) for this compound: c1cnc(-c2noc(C3CN(Cc4ccc5c(c4)CCO5)C3)n2)nc1
27.5

Quote INHIBITION reported for c1cc(-c2cnccn2)cc(-c2ccn(CCCN3CCCCC3)n2)c1 please.
26.9

Give the measured INHIBITION for Cn1cc(C2=CCN(CCCC(=O)Nc3ccc(C#N)cc3)CC2)cn1
50.4

Field: next compound
Find the measured INHIBITION of CN(C)CC(=O)N1CCC2(CC1)CN(Cc1ccccc1)C2 and report it.
33.4
